As shown below, each of these molecules has a reported melting point value.

Consider the worked cases shown below.
CC(=O)NC1(c2ccc(CN3CCN(c4ccccn4)CC3)cc2)CC1 [Example 118]
145 to 147 °C
CC(=O)NCc1ccc(CN2CCN(c3ccc(F)cc3NC(C)=O)CC2)cc1 [Example 39]
148 to 149.5 °C
CC(=O)NCc1ccc(CN2CCN(c3ncc([N+](=O)[O-])s3)CC2)cc1 [Example 88]
151 to 152 °C
CC(=O)NCc1ccc(CN2CCN(c3nc(F)cc(F)n3)CC2)cc1 [Example 78]
128 to 129 °C
COc1ccnc(N2CCN(Cc3ccc(C(C)NC(C)=O)cc3)CC2)n1 (stereo not drawn) [Example 107]
113 to 115 °C

Reported melting point, molecule CC(=O)NC(C)(C)c1ccc(C(C)N2CCN(c3ccc(F)cc3)CC2)cc1 (stereo not drawn) [Example 60] : ____
156 to 157 °C

Next molecule: CC(=O)NC(C)c1ccc(CN2CCN(c3cccc(F)n3)CC2)cc1 (stereo not drawn) [Example 102]
109 to 111 °C

Next molecule: CC(=O)NCc1ccc(CN2CCN(c3nc(C)cc(C)n3)CC2)cc1 [Example 93]
127 to 128 °C

Next molecule: CC(=O)NCc1ccc(CN2CCN(c3ccccn3)CC2)cc1 [Example 82]
100 to 101 °C
